Items are presented alongside their recorded CC50 at 24 h.
Experiment summary: Cytotoxicity against African green monkey BGM cells assessed as lethality after 24 hrs by neutral red dye based assay
Assay type: cell-based
Condition set: chlorocebus aethiops, read-out: MLD50
A number alone suffices; assume µM.

Some molecules with recorded CC50 at 24 h:
Cc1cc(Nc2ccccc2)n2nc(C(F)(F)F)cc2n1 | 856
Cc1cc(Nc2ccc3ccccc3c2)n2nc(C(F)(F)F)cc2n1 | 561
Cc1cc(Nc2ccc3ccccc3c2)n2nc(C)cc2n1 | 406

Please examine the following record next.
Suppose we examine the molecule Cc1cc(Nc2ccccc2C(F)(F)F)n2nc(C)cc2n1 ; what CC50 at 24 h value has been reported? 105
